- Tested on: 743489-274-T-PDC complex spheroid growth
- assay notes: Anticancer human tumor 743489-274-T-PDC patient-derived renal cell carcinoma cell line growth inhibition [AhR]
- reported conditions: second compound 0.316 µM; first compound 0.0316 µM; hits give low values
value kind: viability, T/C (%)
Entry rule: numbers only, all in %.

Nc1ccn(C2OC(CO)C(O)C2(F)F)c(=O)n1 (stereo unspecified) + CC(CO)NC(=O)c1cc(-c2ccc(Cl)cc2)nn(-c2cnn(C)c2)c1=O	80.7
CC1COCCN1c1cc(C2(S(C)(=N)=O)CC2)nc(-c2ccnc3[nH]ccc23)n1 (stereo unspecified) + Cc1ccccc1N=Nc1ccc(NC(=O)c2ccnn2C)c(C)c1	99
COc1cc(C2c3cc4c(cc3C(OC3OC5COC(C)OC5C(O)C3O)C3COC(=O)C23)OCO4)cc(OC)c1O (stereo unspecified) + CC(CO)NC(=O)c1cc(-c2ccc(Cl)cc2)nn(-c2cnn(C)c2)c1=O	99.3

INPUT: viability, T/C lookup needed for O=C(c1cc(Cc2n[nH]c(=O)c3ccccc23)ccc1F)N1CCN(C(=O)C2CC2)CC1 + CC(CO)NC(=O)c1cc(-c2ccc(Cl)cc2)nn(-c2cnn(C)c2)c1=O , thanks.
OUTPUT: 86.3

INPUT: viability, T/C lookup needed for Nc1ccccc1NC(=O)c1ccc(CNC(=O)OCc2cccnc2)cc1 + Cc1ccccc1N=Nc1ccc(NC(=O)c2ccnn2C)c(C)c1 , thanks.
OUTPUT: 99.9

INPUT: viability, T/C lookup needed for COc1ccc([C@@H](O)c2cc(-c3ncnc4cc(N5CCOCC5)ccc34)c(F)cc2Cl)nn1 + Cc1ccccc1N=Nc1ccc(NC(=O)c2ccnn2C)c(C)c1 , thanks.
OUTPUT: 96.2

* * *

- System: 743489-274-T-PDC complex spheroid growth
- assay notes: Anticancer human tumor 743489-274-T-PDC cell line growth inhibition [AhR];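 also: spheroids exposed to agents for 7 days before readout; 100% = DMSO vehicle control wells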
- reported conditions: second compound 3.16 µM; first compound 0.3 µM; hits give low values
- From the text: Multicellular complex tumor spheroid response to aryl hydrocarbon receptor antagonists in combination with a variety of drugs and investigational agents in selected tumor cell lines […] Compounds. […] If the clinical Cmax for an agent had not been determined, the highest concentration tested was 10 microM (Table 1). […]
Labelling: viability, T/C reported below 60% becomes satisfied; at or above becomes not satisfied.

Below are worked cases with known answers.
CCN(c1cc(-c2ccc(CN3CCOCC3)cc2)cc(C(=O)NCc2c(C)cc(C)[nH]c2=O)c1C)C1CCOCC1 + Cc1cncc(-c2nc(NCCc3c[nH]c4ccccc34)c3ncn(C(C)C)c3n2)c1	not satisfied
O=C(C=Cn1cnc(-c2cc(C(F)(F)F)cc(C(F)(F)F)c2)n1)NNc1cnccn1 + CC(CO)NC(=O)c1cc(-c2ccc(Cl)cc2)nn(-c2cnn(C)c2)c1=O	not satisfied
CC(C)CC(NC(=O)C(Cc1ccccc1)NC(=O)c1cnccn1)B(O)O (configuration not stated) + Cc1ccccc1N=Nc1ccc(NC(=O)c2ccnn2C)c(C)c1	satisfied
CCN(c1cc(-c2ccc(CN3CCOCC3)cc2)cc(C(=O)NCc2c(C)cc(C)[nH]c2=O)c1C)C1CCOCC1 + Cc1ccccc1N=Nc1ccc(NC(=O)c2ccnn2C)c(C)c1	not satisfied
CC(C)CC(NC(=O)C(Cc1ccccc1)NC(=O)c1cnccn1)B(O)O (configuration not stated) + CC(CO)NC(=O)c1cc(-c2ccc(Cl)cc2)nn(-c2cnn(C)c2)c1=O	satisfied
CCN(c1cc(-c2ccc(CN3CCOCC3)cc2)cc(C(=O)NCc2c(C)cc(C)[nH]c2=O)c1C)C1CCOCC1 + CC(CO)NC(=O)c1cc(-c2ccc(Cl)cc2)nn(-c2cnn(C)c2)c1=O	not satisfied

INPUT: Decide: viability, T/C of O=C(C=Cn1cnc(-c2cc(C(F)(F)F)cc(C(F)(F)F)c2)n1)NNc1cnccn1 + Cc1cncc(-c2nc(NCCc3c[nH]c4ccccc34)c3ncn(C(C)C)c3n2)c1 strictly below 60%?
OUTPUT: not satisfied

INPUT: Decide: viability, T/C of CC(C)CC(NC(=O)C(Cc1ccccc1)NC(=O)c1cnccn1)B(O)O (configuration not stated) + Cc1cncc(-c2nc(NCCc3c[nH]c4ccccc34)c3ncn(C(C)C)c3n2)c1 strictly below 60%?
OUTPUT: satisfied
